Assay: Half-lives and pharmacokinetic parameters of polypeptides vs HM-1
Conditions: in vivo
Peptide text beside a SMILES is read from it. * marks the point of attachment. Mal(CH2CH2O)6CH2CH2CO = O=C1C=CC(=O)N1CCOCCOCCOCCOCCOCCOCCC(=O)*; X65 = O=C1C=CC(=O)N1c1cccc(CCCCCCCCCCCCC(=O)*)c1; X36 = O=C1C=CC(=O)N1c1ccc(CCCCCCCCCCCC(=O)*)cc1; X19 = O=C1C=CC(=O)N1CCOCCOCCOCCOCCOCC(=O)*; X63 = O=C1C=CC(=O)N1c1ccccc1CCCCCCC(=O)*
Where AUC(0-inf) equals or exceeds 30000 ng·h/mL, the correct label is Satisfied; where it does not, the label is Not satisfied.

Would you please look over these solved cases?
| compound | category |
| --- | --- |
| C[C@H](NC(=O)CNC(=O)[C@H](CCCNC(=N)N)NC(=O)CCCCCCc1ccccc1N1C(=O)C=CC1=O)C(=O)N[C@@H](CC(=O)O)C(=O)N[C@@H](CCCNC(=N)N)C(=O)N[C@@H](C)C(=O)NCC(=O)NCC(=O)NCC(=O)NCC(=O)N[C@@H](CCCNC(=N)N)C(=O)NCC(=O)N[C@@H](CC(=O)O)C(=O)O [X18] (X63-RGADRAGGGGRGD-OH) | Not satisfied |
| C[C@H](NC(=O)CNC(=O)[C@H](CCCNC(=N)N)NC(=O)CCCCCCCCCCCCc1cccc(N2C(=O)C=CC2=O)c1)C(=O)N[C@@H](CC(=O)O)C(=O)N[C@@H](CCCNC(=N)N)C(=O)N[C@@H](C)C(=O)NCC(=O)NCC(=O)NCC(=O)NCC(=O)N[C@@H](CCCNC(=N)N)C(=O)NCC(=O)N[C@@H](CC(=O)O)C(=O)O [X36] (X65-RGADRAGGGGRGD-OH) | Not satisfied |
| C[C@H](NC(=O)CNC(=O)[C@H](CCCNC(=N)N)NC(=O)CCOCCOCCOCCOCCOCCOCCN1C(=O)C=CC1=O)C(=O)N[C@@H](CC(=O)O)C(=O)N[C@@H](CCCNC(=N)N)C(=O)N[C@@H](C)C(=O)NCC(=O)NCC(=O)NCC(=O)NCC(=O)N[C@@H](CCCNC(=N)N)C(=O)NCC(=O)N[C@@H](CC(=O)O)C(=O)O [X85] ({Mal(CH2CH2O)6CH2CH2CO}-RGADRAGGGGRGD-OH) | Satisfied |
| C[C@H](NC(=O)CNC(=O)[C@H](CCCNC(=N)N)NC(=O)COCCOCCOCCOCCOCCN1C(=O)C=CC1=O)C(=O)N[C@@H](CC(=O)O)C(=O)N[C@@H](CCCNC(=N)N)C(=O)N[C@@H](C)C(=O)NCC(=O)NCC(=O)NCC(=O)NCC(=O)N[C@@H](CCCNC(=N)N)C(=O)NCC(=O)N[C@@H](CC(=O)O)C(=O)O [X77] (X19-RGADRAGGGGRGD-OH) | Satisfied |

Now examine the next entry.
Ask: Hi, just wondering whether C[C@H](NC(=O)CNC(=O)[C@H](CCCNC(=N)N)NC(=O)CCCCCCCCCCCc1ccc(N2C(=O)C=CC2=O)cc1)C(=O)N[C@@H](CC(=O)O)C(=O)N[C@@H](CCCNC(=N)N)C(=O)N[C@@H](C)C(=O)NCC(=O)NCC(=O)NCC(=O)NCC(=O)N[C@@H](CCCNC(=N)N)C(=O)NCC(=O)N[C@@H](CC(=O)O)C(=O)O [X47] (X36-RGADRAGGGGRGD-OH) shows AUC(0-inf) of 30000 ng·h/mL or higher.
Reply: Satisfied

---

Catalogue of Inhibition rate (corneal neovascularization) values
Tested on: corneal neovascularization
Assay: Corneal neovascularization induced by alkali burn in BALB/c mice
Format: in vivo
Design: concentration or dose not given beside the values
Conditions: day 14 after alkali burn, vitreous injection once a day for 1 week
Peptide text beside a SMILES is read from it. * marks the point of attachment. X59 = O=C1C=CC(=O)N1c1cccc(CCCCCCCCC(=O)*)c1; X49 = O=C1C=CC(=O)N1c1ccccc1CCCCCC(=O)*
State just the number; it will be interpreted in %.

| compound | unit | endpoint-value |
| --- | --- | --- |
| C[C@H](NC(=O)CNC(=O)[C@H](CCCNC(=N)N)NC(=O)CCCCCc1ccccc1N1C(=O)C=CC1=O)C(=O)N[C@@H](CC(=O)O)C(=O)N[C@@H](CCCNC(=N)N)C(=O)N[C@@H](C)C(=O)NCC(=O)NCC(=O)NCC(=O)NCC(=O)N[C@@H](CCCNC(=N)N)C(=O)NCC(=O)N[C@@H](CC(=O)O)C(=O)O [X17] (X49-RGADRAGGGGRGD-OH) | % | 48.05 |

Consider C[C@H](NC(=O)CNC(=O)[C@H](CCCNC(=N)N)NC(=O)CCCCCCCCc1cccc(N2C(=O)C=CC2=O)c1)C(=O)N[C@@H](CC(=O)O)C(=O)N[C@@H](CCCNC(=N)N)C(=O)N[C@@H](C)C(=O)NCC(=O)NCC(=O)NCC(=O)NCC(=O)N[C@@H](CCCNC(=N)N)C(=O)NCC(=O)N[C@@H](CC(=O)O)C(=O)O [X32] (X59-RGADRAGGGGRGD-OH) . Its measured Inhibition rate (corneal neovascularization) is 50.25

---

Test system: choroidal neovascularization
Test: Choroidal neovascularization in rats (laser photocoagulation, FFA)
Assay type: in vivo
Conditions: day 7 after administration, total light spot number was 186, 0.05 μM in the vitreous chamber once a day for 1 week, BN rats
Peptide text beside a SMILES is read from it. * marks the point of attachment. X74 = O=C1C=CC(=O)N1c1cccc(CCCCCCCCCCC(=O)*)c1; X71 = O=C1C=CC(=O)N1c1cccc(CCCCCC(=O)*)c1
property: Leakage Light spot number
Enter a number only.

| compound | endpoint-value |
| --- | --- |
| C[C@H](NC(=O)CNC(=O)[C@H](CCCNC(=N)N)NC(=O)CCCCCCCCCCc1cccc(N2C(=O)C=CC2=O)c1)C(=O)N[C@@H](CC(=O)O)C(=O)N[C@@H](CCCNC(=N)N)C(=O)N[C@@H](C)C(=O)NCC(=O)NCC(=O)NCC(=O)NCC(=O)N[C@@H](CCCNC(=N)N)C(=O)NCC(=O)N[C@@H](CC(=O)O)C(=O)O [X34] (X74-RGADRAGGGGRGD-OH) | 88 |

Switching to the query record.
Consider C[C@H](NC(=O)CNC(=O)[C@H](CCCNC(=N)N)NC(=O)CCCCCc1cccc(N2C(=O)C=CC2=O)c1)C(=O)N[C@@H](CC(=O)O)C(=O)N[C@@H](CCCNC(=N)N)C(=O)N[C@@H](C)C(=O)NCC(=O)NCC(=O)NCC(=O)NCC(=O)N[C@@H](CCCNC(=N)N)C(=O)NCC(=O)N[C@@H](CC(=O)O)C(=O)O [X29] (X71-RGADRAGGGGRGD-OH) . Its measured Leakage Light spot number is 85

---

Test system: IL-1β production by mouse peritoneal macrophages
Test: IL-1β production by mouse peritoneal macrophages (ELISA)
Format: cell-based
Conditions: dose 0.05 μM; mouse peritoneal macrophages, 48 h, ELISA
Peptide text beside a SMILES is read from it. * marks the point of attachment. X65 = O=C1C=CC(=O)N1c1cccc(CCCCCCCCCCCCC(=O)*)c1; X60 = O=C1C=CC(=O)N1c1ccccc1CCCCCCCCCC(=O)*; X71 = O=C1C=CC(=O)N1c1cccc(CCCCCC(=O)*)c1
Catalogue of IL-1β values
Enter the number, and then the unit.

| molecule | assay-system | endpoint-value |
| --- | --- | --- |
| C[C@H](NC(=O)CNC(=O)[C@H](CCCNC(=N)N)NC(=O)CCCCCCCCCc1ccccc1N1C(=O)C=CC1=O)C(=O)N[C@@H](CC(=O)O)C(=O)N[C@@H](CCCNC(=N)N)C(=O)N[C@@H](C)C(=O)NCC(=O)NCC(=O)NCC(=O)NCC(=O)N[C@@H](CCCNC(=N)N)C(=O)NCC(=O)N[C@@H](CC(=O)O)C(=O)O [X21] (X60-RGADRAGGGGRGD-OH) | IL-1β production by mouse peritoneal macrophages | 773.58 ± 10.52 pg/mL |
| C[C@H](NC(=O)CNC(=O)[C@H](CCCNC(=N)N)NC(=O)CCCCCc1cccc(N2C(=O)C=CC2=O)c1)C(=O)N[C@@H](CC(=O)O)C(=O)N[C@@H](CCCNC(=N)N)C(=O)N[C@@H](C)C(=O)NCC(=O)NCC(=O)NCC(=O)NCC(=O)N[C@@H](CCCNC(=N)N)C(=O)NCC(=O)N[C@@H](CC(=O)O)C(=O)O [X29] (X71-RGADRAGGGGRGD-OH) | IL-1β production by mouse peritoneal macrophages | 788.74 ± 15.39 pg/mL |

Switching to the query record.
Consider C[C@H](NC(=O)CNC(=O)[C@H](CCCNC(=N)N)NC(=O)CCCCCCCCCCCCc1cccc(N2C(=O)C=CC2=O)c1)C(=O)N[C@@H](CC(=O)O)C(=O)N[C@@H](CCCNC(=N)N)C(=O)N[C@@H](C)C(=O)NCC(=O)NCC(=O)NCC(=O)NCC(=O)N[C@@H](CCCNC(=N)N)C(=O)NCC(=O)N[C@@H](CC(=O)O)C(=O)O [X36] (X65-RGADRAGGGGRGD-OH) . Its measured IL-1β is 779.49 ± 11.56 pg/mL
